TEST_TARGET: T1, mf TFRC ecto-mmh (REGN2054), monomeric monkey (cyno) Tfrc ectodomain with C-terminal myc-myc-hexahistidine tag (monkey (cyno), Macaca fascicularis, UniProt H9EXL1 89-760)
T1 construct: range 89-760; also called mfTfR-mmh; mfTFR-mmh
T1 sequence (chain, as listed by the source): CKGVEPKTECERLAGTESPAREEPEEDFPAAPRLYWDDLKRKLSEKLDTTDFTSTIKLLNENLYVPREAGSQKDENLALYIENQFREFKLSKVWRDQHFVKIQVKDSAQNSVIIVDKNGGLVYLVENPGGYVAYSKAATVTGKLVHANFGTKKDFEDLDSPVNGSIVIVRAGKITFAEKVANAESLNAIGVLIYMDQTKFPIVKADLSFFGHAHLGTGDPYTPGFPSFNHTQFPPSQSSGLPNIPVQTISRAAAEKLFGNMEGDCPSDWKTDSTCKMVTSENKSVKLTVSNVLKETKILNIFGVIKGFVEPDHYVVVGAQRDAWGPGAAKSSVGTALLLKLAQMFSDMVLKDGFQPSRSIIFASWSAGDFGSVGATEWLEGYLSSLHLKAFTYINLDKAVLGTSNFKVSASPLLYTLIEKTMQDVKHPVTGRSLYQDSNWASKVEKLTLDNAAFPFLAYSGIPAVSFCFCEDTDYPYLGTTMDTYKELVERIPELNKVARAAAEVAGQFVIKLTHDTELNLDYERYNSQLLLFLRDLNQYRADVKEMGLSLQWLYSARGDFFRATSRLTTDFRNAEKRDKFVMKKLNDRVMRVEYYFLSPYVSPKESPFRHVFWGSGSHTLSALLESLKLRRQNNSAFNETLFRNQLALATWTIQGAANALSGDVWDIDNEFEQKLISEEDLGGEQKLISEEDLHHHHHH
ASSAY_TEXT: SPR (Biacore), mAb captured on anti-human Fc, 100 nM mfTfR-mmh, 25 C
In this section we review reported pKd values for a set of binders.
// pKd is dimensionless: -log10 of concentration (M)

12808B (antibody, human IgG1, kappa, V domains shown, Tested as bivalent human IgG1 from CHO primary supernatant) VH: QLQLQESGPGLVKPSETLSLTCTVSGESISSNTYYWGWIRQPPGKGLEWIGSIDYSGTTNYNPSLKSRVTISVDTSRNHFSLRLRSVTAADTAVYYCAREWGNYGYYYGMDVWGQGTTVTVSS VL: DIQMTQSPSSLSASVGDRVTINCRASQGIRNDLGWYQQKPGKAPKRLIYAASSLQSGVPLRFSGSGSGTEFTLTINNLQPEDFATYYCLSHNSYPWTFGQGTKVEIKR = 8.24

What measured pKd goes with 31863B (antibody, human IgG1, kappa, V domains shown, Tested as bivalent human IgG1 from CHO primary supernatant) VH: EVQLVESGGGLVQPGGSLRLSCAASGFTFNSYAMTWVRQAPGKGLEWVSFIGGSTGNTYYAGSVKGRFTISSDNSKKTLYLQMNSLRAEDTAVYYCAKGGAARRMEYFQHWGQGTLVTVSS VL: DIQMTQSPSSLSASIGDRVTITCRASQGISNYLAWYQQKPGKVPKLLIYAASTLQSGVPSRFSGSGSGTDFTLTISSLQPEDVATYYCQNHNSVPLTFGGGTKVEIKR ? 7.74

Item 69331 (antibody, human IgG1, kappa, V domains shown, Tested as bivalent human IgG1 from CHO primary supernatant) VH: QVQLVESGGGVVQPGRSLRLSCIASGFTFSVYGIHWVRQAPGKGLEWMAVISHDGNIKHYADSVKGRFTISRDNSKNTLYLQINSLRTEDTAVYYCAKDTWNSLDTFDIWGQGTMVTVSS VL: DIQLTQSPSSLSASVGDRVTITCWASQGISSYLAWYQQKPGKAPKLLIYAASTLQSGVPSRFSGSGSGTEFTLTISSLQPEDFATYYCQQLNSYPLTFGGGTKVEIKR has what recorded pKd? 7.69

Find the recorded pKd belonging to 12802B (antibody, human IgG1, kappa, V domains shown, Tested as bivalent human IgG1 from CHO primary supernatant) VH: QVQLVESGGGLVKPGGSLRLSCAASGFTFSDYFMSWIRQAPGKGLEWVSYISSTGSTINYADSVKGRFTISRDNVKNSLYLQMTSLRVEDTAVYYCTRDNWNYEYWGQGTLVTVSS VL: EIVMTQSPATLSVSPGERATLSCRASQSVSINLAWYQQKPGQAPRLLIFVASTRATGIPARFSGSGSGTEFTLTISSLQSEDFATYYCQQYDIWPYTFGQGTKLEIKR and report it. 8.12

Look at this binder and give its reported pKd. 69340 (antibody, human IgG1, kappa, V domains shown, Tested as bivalent human IgG1 from CHO primary supernatant) VH: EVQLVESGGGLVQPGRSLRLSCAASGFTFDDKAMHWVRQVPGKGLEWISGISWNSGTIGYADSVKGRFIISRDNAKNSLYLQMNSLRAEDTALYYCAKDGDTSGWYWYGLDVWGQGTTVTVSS VL: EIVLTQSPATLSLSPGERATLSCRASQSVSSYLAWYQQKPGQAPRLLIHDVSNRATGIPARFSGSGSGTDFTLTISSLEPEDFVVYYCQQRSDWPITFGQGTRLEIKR 8.09

I'd like to know its pKd. The binder in question is 69263 (antibody, human IgG1, kappa, V domains shown, Tested as bivalent human IgG1 from CHO primary supernatant) VH: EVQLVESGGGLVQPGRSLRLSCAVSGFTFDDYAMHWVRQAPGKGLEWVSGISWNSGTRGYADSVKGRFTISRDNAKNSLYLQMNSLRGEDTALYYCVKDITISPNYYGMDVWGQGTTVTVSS VL: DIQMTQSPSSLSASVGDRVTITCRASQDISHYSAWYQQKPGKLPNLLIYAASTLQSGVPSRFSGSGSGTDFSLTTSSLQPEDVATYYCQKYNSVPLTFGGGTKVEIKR 7.72

Quick one: pKd of 12795B (antibody, human IgG1, kappa, V domains shown, Tested as bivalent human IgG1 from CHO primary supernatant) VH: EVQLVESGGGLVQPGGSLRLSCATSGFTFTSYDMKWVRQAPGLGLEWVSAISGSGGNTYYADSVKGRFTISRDNSRNTLYLQMNSLRAEDTAVYYCTRSHDFGAFDYFDYWGQGTLVTVSS VL: DIQMTQSPSSLSASVGDRVTITCRASQGIRDHFGWYQQKPGKAPKRLIYAASSLHSGVPSRFSGSGSGTEFTLTISSLQPEDFATYYCLQYDTYPLTFGGGTKVEIKR ? 8.94

Entry under review: 31874B (antibody, human IgG1, kappa, V domains shown, Tested as bivalent human IgG1 from CHO primary supernatant; also called H1H31874B; REGN17517) VH: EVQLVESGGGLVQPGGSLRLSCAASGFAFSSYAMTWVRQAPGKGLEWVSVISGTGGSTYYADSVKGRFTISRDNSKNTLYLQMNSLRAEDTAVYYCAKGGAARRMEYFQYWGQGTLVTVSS VL: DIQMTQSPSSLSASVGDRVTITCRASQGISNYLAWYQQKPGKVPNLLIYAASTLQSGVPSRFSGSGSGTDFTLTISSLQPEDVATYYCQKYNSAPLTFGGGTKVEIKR . Reported pKd? 7.84

I'd like to know its pKd. The binder in question is 69348 (antibody, human IgG1, kappa, V domains shown, Tested as bivalent human IgG1 from CHO primary supernatant) VH: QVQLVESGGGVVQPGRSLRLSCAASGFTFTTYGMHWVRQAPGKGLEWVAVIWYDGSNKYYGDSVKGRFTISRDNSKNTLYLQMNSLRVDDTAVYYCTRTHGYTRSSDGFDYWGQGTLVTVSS VL: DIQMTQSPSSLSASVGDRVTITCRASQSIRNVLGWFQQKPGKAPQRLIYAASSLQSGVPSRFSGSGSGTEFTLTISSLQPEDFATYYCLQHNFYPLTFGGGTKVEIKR 8.32

Which pKd value is on record for 12799B (antibody, human IgG1, kappa, V domains shown, Tested as bivalent human IgG1 from CHO primary supernatant; also called H1H12799B; REGN17508) VH: QITLKESGPTLVKPTQTLTLTCTFSGFSLSTSGVGVVWIRQPPGKALEWLALIYWNDHKRYSPSLGSRLTITKDTSKNQVVLTMTNMDPVDTATYYCAHYSGSYSYYYYGLDVWGQGTTVTVSS VL: DIQMTQSPSSVSASVGDRVTITCRASQGIASWLAWYQQKPGKAPELLIYAASSLQGGVPSRFSGSGSGTDFTLTISSLQPEDFAIYYCQQANYFPWTFGQGTKVEIKR ? 8.73

Form field: reported pKd of 12801B (antibody, human IgG1, kappa, V domains shown, Tested as bivalent human IgG1 from CHO primary supernatant) VH: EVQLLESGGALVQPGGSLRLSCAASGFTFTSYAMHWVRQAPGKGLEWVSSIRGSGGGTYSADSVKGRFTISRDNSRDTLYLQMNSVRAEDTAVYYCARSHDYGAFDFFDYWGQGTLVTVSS VL: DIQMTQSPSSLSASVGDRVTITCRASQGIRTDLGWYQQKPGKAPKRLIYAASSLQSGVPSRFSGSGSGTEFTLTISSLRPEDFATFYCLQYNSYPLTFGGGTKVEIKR 7.99
